Biological target: T1, recombinant human OX40L (extracellular domain, R&D Systems) (human, UniProt P23510 51-183)
T1 construct: also called hOX40L; rec. hOX40L
T1 sequence: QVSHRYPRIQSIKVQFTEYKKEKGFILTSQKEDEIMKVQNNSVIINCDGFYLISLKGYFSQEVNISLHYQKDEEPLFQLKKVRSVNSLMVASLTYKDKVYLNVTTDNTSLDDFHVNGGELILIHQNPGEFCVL
Experiment: SPR, second injection after competitor OX40L15B07
Would you kindly list Binding Level sample 2 - sample 1 (RU) for each of these binders?
Answers are plain numbers, in RU.

{"columns": ["BINDER", "OUTPUT_UNIT", "Binding Level sample 2 - sample 1 (RU)"],
 "data": [
  ["OX40L19D08 (VHH, monovalent Nanobody from E. coli; not shown: C-terminal c-myc and His6 tag) VHH: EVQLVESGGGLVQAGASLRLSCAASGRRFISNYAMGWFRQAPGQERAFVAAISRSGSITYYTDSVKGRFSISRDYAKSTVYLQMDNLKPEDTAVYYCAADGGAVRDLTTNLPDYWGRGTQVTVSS", "RU", 42],
  ["OX40L01B11 (VHH, monovalent Nanobody from E. coli; not shown: C-terminal c-myc and His6 tag) VHH: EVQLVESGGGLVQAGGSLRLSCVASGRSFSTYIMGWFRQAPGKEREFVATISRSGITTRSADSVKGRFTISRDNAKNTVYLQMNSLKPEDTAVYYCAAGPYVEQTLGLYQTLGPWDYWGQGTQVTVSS", "RU", 61]
]}

For the next question, use this binder.
[in] Reported Binding Level sample 2 - sample 1 (RU) for OX40L01E10 (VHH, monovalent Nanobody from E. coli; not shown: C-terminal c-myc and His6 tag) VHH: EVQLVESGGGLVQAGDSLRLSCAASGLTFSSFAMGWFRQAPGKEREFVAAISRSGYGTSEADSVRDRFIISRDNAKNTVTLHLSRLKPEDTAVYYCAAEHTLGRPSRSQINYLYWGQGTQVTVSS : what is it?
[out] 5
